system: LXRb:RXRa (NR concentration 270 nM, RXRa partner concentration 90 nM); assay: PBM binding z-score (relative to random genomic background probes); higher = stronger binding; sequences stand for … in GC…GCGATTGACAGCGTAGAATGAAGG
Classify by measured PBM binding z-score: criterion met if it is equal to or exceeds 0.5, criterion not met if it is smaller.

Illustrative cases are given below, each with its answer.
1. CCTAACAGGCCAATCTGGGTCACTCAAGGCTTGA    criterion met
2. CGTCAAAGTTCAACCAAGGTAACGTAAAGCACGC    criterion met
3. GCTTGTAGATCAAGGTTAAGTAAGACTAAGCTAA    criterion met
4. TCTTGTAGATCAGCAGGTTAAGAAGGCTGGCCAA    criterion not met
5. TCATATAGGTAATACAGGAGAAAGTCGGCATCTA    criterion met

Check this sequence for PBM binding z-score at or above 0.5: `ATCGAAAGGCCGTGAGGTGAGTATACAGAAAGGC` criterion not met

Check this sequence for PBM binding z-score at or above 0.5: `CCTAGCAGGCCAATCTGTGTCACTCAAGGCTTGA` criterion not met

Check this sequence for PBM binding z-score at or above 0.5: `GCATACAGGTGAAACGCAGGTAACTCAGGGTGGC` criterion not met

Check this sequence for PBM binding z-score at or above 0.5: `TCAGTCAGGTGAAGGTAACTCAGGTACGCAGTCG` criterion met

Check this sequence for PBM binding z-score at or above 0.5: `CCTTACGGGTCACGAGGTTAGAGCACGACGAGCG` criterion met
